tested on: Human umbilical vein endothelial cell; assay: In Vitro Angiogenesis Assay (morphogenesis / tube formation on Matrigel, ECMatrix kit); format: cell-based; parameters: key: Individual cells, well separated (+++++); Cells begin to migrate and align themselves (++++); Cells begin to line but not sprouting (+++); Visible Sprouting (++); Closed polygons begins to form (+); conditions: HUVECs on ECMatrix, 8 hours at 37° C., inhibitors 1 mM and 10 mM; higher score = greater inhibition of angiogenesis
OBSERVATION_TYPE: Results (In Vitro Angiogenesis Assay score)

Observe how each entry below is paired with its result.
O=C(Nc1cccc2c1C(=O)NC2=O)c1ccc([N+](=O)[O-])o1 : +++++
O=C(Nc1ccc2c(c1)C(=O)NC2=O)c1nc2ccccc2s1 : ++++
CC(=O)c1ccc(C(=O)Nc2ccc3c(c2)C(=O)NC3=O)cc1 : ++
O=C(Nc1cccc2c1C(=O)NC2=O)c1ccc(S(=O)(=O)N2CCCCC2)cc1 : +++
O=C(Nc1cccc2c1C(=O)NC2=O)c1ccc(Cl)s1 : +++

From here, focus on the item given below.
Give measured Results (In Vitro Angiogenesis Assay score) for N#Cc1ccc(C(=O)Nc2ccc3c(c2)C(=O)NC3=O)cc1 (Human umbilical vein endothelial cell).
+++
